What composite z-score was measured for each of the following?
- test.summary: COS7 lysate on small-molecule microarray, probe aHis, 635 nm (AID 1123);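 note: z-score combines 667nm fluorescence intensity with signal-to-noise per printed compound spot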
- condition.info: COS7 cell lysate, fluorescence, higher = more signal
Form field (numeric): enter value without unit.

Recorded composite z-score of C=CC[C@@H](OC(=O)Nc1ccc(OC)cc1)c1ccc(O)c(F)c1 , please. 1.93

Recorded composite z-score of C=CCOC(=O)[C@@]1(Cc2ccccc2)C[C@H]2CO[C@H](c3ccc(OC)cc3)N2C1=O , please. 0.146

Recorded composite z-score of COc1ccc([Si](C)(C)[C@@H]2[C@@H](CCO)O[C@]3(C(=O)N(Cc4ccccc4)c4ccc(N5C(=O)c6cccc7cccc5c67)cc43)[C@H]2C)cc1 , please. 1.25

Recorded composite z-score of COC(=O)c1c(CC[C@@H](CO)NC(=O)N2CCC[C@H]2Cn2cc(C3(O)CCCCC3)nn2)oc(C(C)=O)c1C(=O)OC , please. 1.44

Recorded composite z-score of COc1cccc(C)c1NC(=O)O[C@H]1[C@H](OC(=O)Nc2ccccc2-c2ccccc2)[C@H](OC(=O)Nc2ccccc2-c2ccccc2)[C@@H](OC)O[C@@H]1CO , please. 0.947

Recorded composite z-score of COC(=O)[C@@]1(Cc2ccc(OC)cc2)[C@H]2c3cc(C(=O)N(C)C)n(Cc4ccc(OC(F)(F)F)cc4)c3C[C@H]2CN1C(=O)c1ccccc1 , please. 1.74

Recorded composite z-score of Cc1ccc(S[C@]2(C(=O)NCC(F)(F)F)CC(=O)N(Cc3cc(C(F)(F)F)cc(C(F)(F)F)c3)[C@@H]2c2ccc(CO)cc2)cc1 , please. -0.551

----------
- test.summary: binders from COS7 lysate, DM2A8 probe, primary screen, torsin A project, cell lysate, small-molecule microarray, fluorescence 635/667 (AID 1065)
- condition.info: higher = more signal, COS7 lysate expressing mutant human TOR1A
What composite z-score was measured for each of the following?
Form field (numeric): enter value without unit.

Recorded composite z-score of CCCC=C(CCC)[C@@H](NS(=O)(=O)c1ccc(C(F)(F)F)cc1)c1ccccc1 , please. -0.0296

Recorded composite z-score of CC(=O)NCCCC[C@@H]1NC(=O)[C@@H]2C[C@H](C(=O)NCCCCCN)[C@H](c3ccc(O)cc3)N2C1=O , please. 1.25

Recorded composite z-score of CCCCC(=C=CC[C@H](O)c1ccc(OCCO)cc1)CCO , please. -0.0707

Recorded composite z-score of C=CC[C@]1(C(=O)N2CCOCC2)COC(c2ccc(OCCCO)cc2)=N1 , please. 1.47

Recorded composite z-score of COCC(=C=CC[C@H](O)c1ccc(CO)o1)CCO , please. -0.0406

Recorded composite z-score of C#CCN(Cc1ccccc1Br)[C@H](/C=C/c1ccccc1)[C@@H](O)Cc1ccccc1 , please. -0.145

Recorded composite z-score of [N-]=[N+]=NCc1ccccc1[C@H]1OC(c2ccc(OCCCO)cc2)=N[C@@]1(Cc1ccccc1N=[N+]=[N-])C(=O)NCC(O)CO (stereo not given in full) , please. 0.651

Recorded composite z-score of CCCCC(CC)C(O)C1C=CC2C(=O)N(C)C(=O)C2N1Nc1ccccc1 (stereo not given) , please. 0.0145

Recorded composite z-score of C=C[C@@H](CO)N(Cc1ccc(OC)cc1)S(=O)(=O)c1ccc(Br)cc1 , please. 0.368

Recorded composite z-score of C[N+](C)(C)CCCC[C@@H]1NC(=O)[C@@H]2C[C@H](C(=O)NCCCCCCN)[C@H](c3cccc(OCCO)c3)N2C1=O , please. 2.09

Recorded composite z-score of [N-]=[N+]=NCc1ccccc1C[C@@]1(C(N)=O)N=C(c2ccc(OCCCO)cc2)O[C@@H]1c1ccccc1 , please. -0.173

Recorded composite z-score of Cc1ccc(S[C@]2(C(=O)NCC(F)(F)F)CC(=O)N(Cc3cc(C(F)(F)F)cc(C(F)(F)F)c3)[C@@H]2c2ccc(CO)cc2)cc1 , please. -1.74

Recorded composite z-score of COc1cccc(C)c1NC(=O)O[C@H]1[C@H](OC(=O)Nc2ccccc2-c2ccccc2)[C@H](OC(=O)Nc2ccccc2-c2ccccc2)[C@@H](OC)O[C@@H]1CO , please. 0.0513

Recorded composite z-score of CCCNC(=O)[C@@H]1c2ccccc2C(=O)N(Cc2ccc(OC(F)(F)F)cc2)[C@H]1c1ccc(CO)cc1 , please. -0.392

Recorded composite z-score of O=C1NC(=O)C2C1C=CC(C(O)c1ccco1)N2Nc1ccc(Cl)cc1Cl (stereo not given) , please. -0.13

Recorded composite z-score of CC(=O)NCCCC[C@@H]1NC(=O)[C@@H]2C[C@H](C(=O)NCCCCCN)[C@H](c3cccc(OCCO)c3)N2C1=O , please. 1.92

Recorded composite z-score of CCOC(=O)C[C@H]1[C@H](OC(=O)c2ccccc2-c2ccccc2)[C@@H](NC(=O)c2ccc3ccccc3n2)c2cc(OCCCO)ccc2N1C(=O)Cc1ccc(OC)cc1 , please. 0.394

Recorded composite z-score of CN(C)C(=O)[C@@]1(Cc2ccccc2)N=C(c2ccc(OCCCO)cc2)O[C@H]1c1ccccc1 , please. 0.459

Recorded composite z-score of COC(=O)c1c(CC[C@@H](CO)NC(=O)N[C@@H](C)Cn2cc(-c3ccccn3)nn2)oc(C(C)=O)c1C(=O)OC , please. 0.334

Recorded composite z-score of O=C1OCCC=C[C@H]2OC34C=CCN(Cn5nnc6ccccc65)C(=O)[C@H]3N(CCCO)C(=O)[C@@H]4C12 (stereo not given in full) , please. -0.173

Recorded composite z-score of COC(=O)[C@@]1(Cc2ccc(OC)cc2)[C@H]2c3cc(C(=O)N4CCCC4)n(CCc4c[nH]c5ccc(OC)cc45)c3C[C@H]2CN1C(=O)c1ccccc1 , please. 1.14

Recorded composite z-score of CCOC(=O)C1=C[C@@H](c2ccccc2)N(S(=O)(=O)c2ccc(C)cc2)[C@H]1c1ccc(OC)cc1 , please. 0.733

Recorded composite z-score of C=CCN1C(=O)[C@]2(CCS(=O)(=O)c3ccccc3)N=C(c3ccc(OCCCO)cc3)O[C@@H]2c2ccccc21 , please. 0.264

Recorded composite z-score of COCCOC(=O)N1C(=O)[C@@]2(c3cc(C#CC4=CCCCC4)ccc31)[C@H](c1ccccc1OCCO)N1[C@H](c3ccccc3)[C@H](c3ccccc3)OC(=O)[C@H]1[C@@H]2C(=O)N1CCN(c2ncccn2)CC1 , please. 0.434

Recorded composite z-score of COC(=O)[C@@]1(Cc2ccc(OC)cc2)[C@H]2c3cc(C(=O)N(C)C)n(Cc4ccc(OC(F)(F)F)cc4)c3C[C@H]2CN1C(=O)c1ccccc1 , please. -0.468

Recorded composite z-score of [N-]=[N+]=Nc1ccccc1C[C@]1(C(=O)NCC(O)CO)COC(c2ccc(OCCCO)cc2)=N1 (stereo not given in full) , please. 0.475

Recorded composite z-score of O=C1O[C@@H](c2ccccc2)[C@@H](c2ccccc2)N2[C@@H](c3ccc(O)cc3)[C@]3(C(=O)Nc4ccc(C#CCCO)cc43)[C@@H](C(=O)N3CCN(c4ncccn4)CC3)[C@H]12 , please. -0.307

Recorded composite z-score of CC(C)N1C(=O)C[C@@](C(=O)NC2CC2)(c2ccc([N+](=O)[O-])cc2)[C@H]1c1ccc(CO)cc1 , please. 0.387

Recorded composite z-score of COc1ccc([Si](C)(C)[C@H]2[C@H](CC(=O)N3Cc4ccccc4C[C@H]3CO)O[C@@]3(C(=O)N(Cc4ccc(N5CCOC5=O)cc4)c4ccccc43)[C@@H]2C)cc1 , please. 0.443

Recorded composite z-score of COC(=O)[C@@]1(Cc2ccc(F)cc2)[C@H]2c3cc(C(=O)N4CCCC4)n(CCc4c[nH]c5ccccc45)c3C[C@H]2CN1C(=O)c1ccccc1 , please. 0.246

----------
- test.summary: compound effects on lung adenocarcinoma cell viability – A549, calcein-AM fluorescence, 48 h, basal, profiling panel (AID 1162); note: test concentration not given here
- condition.info: higher = more signal
Class t: z-score at least -0.4. Class f: z-score below -0.4.

Threshold query (z-score >= -0.4) on CO[C@H]1O[C@H](CO)[C@@H](OC(=O)Nc2ccc3c(c2)OCO3)[C@H](OC(=O)Nc2ccc3c(c2)OCO3)[C@@H]1OC(=O)Nc1ccc2c(c1)OCO2 t

Threshold query (z-score >= -0.4) on O=C(O)[C@@H]1[C@@H]2C(=O)N(c3ccccc3)C(=O)[C@@H]2C[C@@H]1Sc1ccccc1 f

Threshold query (z-score >= -0.4) on C=CCNC(=O)[C@H]1[C@@H]2C(=O)O[C@@H](c3ccccc3)[C@@H](c3ccccc3)N2[C@@H](c2ccccc2OCCO)[C@]12C(=O)N(C(=O)OCCOC)c1ccc(C#CC3(O)CCCCCC3)cc12 t

Threshold query (z-score >= -0.4) on C=C[C@@H](OC)[C@H](OC(=O)Nc1ccc(OC)cc1)c1ccc(O)c(F)c1 f

Threshold query (z-score >= -0.4) on CC1CC/C=C\[C@H]2OC34C=CCN(C(C)(C)C)C(=O)[C@H]3N(CCCCCO)C(=O)[C@@H]4C2C(=O)O1 (stereo not given in full) t

Threshold query (z-score >= -0.4) on COC(=O)[C@@H]1N=C(c2ccc(OCCCO)cc2)O[C@@H]1C t

Threshold query (z-score >= -0.4) on COCCOC(=O)N1C(=O)[C@@]2(c3cc(C#CC4(O)CCCCCC4)ccc31)[C@H](C(=O)N1CCc3cc(OC)c(OC)cc3C1)[C@H]1C(=O)O[C@H](c3ccccc3)[C@H](c3ccccc3)N1[C@@H]2c1ccc(OCCO)cc1 t

Threshold query (z-score >= -0.4) on C=C[C@H](C)[C@H](OC(=O)Nc1ccc(SC)cc1)c1ccc(OCCO)cc1 t

Threshold query (z-score >= -0.4) on COC(=O)[C@]1(CCS(=O)(=O)c2ccccc2)N=C(c2ccc(OCCCO)cc2)O[C@@H]1c1ccccc1N=[N+]=[N-] f

Threshold query (z-score >= -0.4) on Cc1ccc(S[C@]2(C(=O)NCC(F)(F)F)CC(=O)N(Cc3cc(C(F)(F)F)cc(C(F)(F)F)c3)[C@@H]2c2ccc(CO)cc2I)cc1 t

Threshold query (z-score >= -0.4) on C=CC[C@H](OC(=O)Nc1ccc(SC)cc1)c1ccc(O)c2ccccc12 f

Threshold query (z-score >= -0.4) on COCC(=C=CC[C@H](O)c1ccccc1OCCO)C[C@H](O)c1ccccn1 t

Threshold query (z-score >= -0.4) on C#CCN(Cc1ccccc1Br)[C@H](/C=C/c1ccccc1)[C@@H](O)Cc1ccccc1 f

Threshold query (z-score >= -0.4) on COC(=O)C(CC#Cc1ccc2c(c1)[C@]1(C(=O)N2)[C@H](c2ccc(O)cc2)N2[C@H](c3ccccc3)[C@H](c3ccccc3)OC(=O)[C@H]2[C@@H]1C(=O)NC[C@H](O)c1ccccc1)C(=O)OC f

Threshold query (z-score >= -0.4) on CN1C2C=C(CCCO)C(C3C(=O)N(C(N)=O)C(=O)C32)C1C1CC1 (stereo not given) t
